Entry source: the supplement of paper PMC6757056

B1: library; a variant is named by its letters at N, in order (parent)
chain: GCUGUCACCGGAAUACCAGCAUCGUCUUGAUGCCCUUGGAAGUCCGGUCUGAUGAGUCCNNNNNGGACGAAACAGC

# Variants of: B1
# Assay procedure: FACS-Seq fitted mean relative fluorescence mCherry/BFP with ligand (log10 relative fluorescence); ligand concentration (+) FACS-Seq: 1 mM; higher = higher reporter protein expression
# Condition details: HEK293T, ligand present: yes
Record satisfied whenever FACS-Seq fitted mean (log10) is at 0.8 or higher; record not satisfied when lower.

Q) State whether the measured FACS-Seq fitted mean (log10) reaches 0.8, counting equality as reaching it, for GCUGUCACCGGAAUACCAGCAUCGUCUUGAUGCCCUUGGAAGUCCGGUCUGAUGAGUCCCUUUUGGACGAAACAGC [CUUUU]
A) satisfied

Q) State whether the measured FACS-Seq fitted mean (log10) reaches 0.8, counting equality as reaching it, for GCUGUCACCGGAAUACCAGCAUCGUCUUGAUGCCCUUGGAAGUCCGGUCUGAUGAGUCCUAACUGGACGAAACAGC [UAACU]
A) not satisfied

Q) State whether the measured FACS-Seq fitted mean (log10) reaches 0.8, counting equality as reaching it, for GCUGUCACCGGAAUACCAGCAUCGUCUUGAUGCCCUUGGAAGUCCGGUCUGAUGAGUCCUCACCGGACGAAACAGC [UCACC]
A) not satisfied

Q) State whether the measured FACS-Seq fitted mean (log10) reaches 0.8, counting equality as reaching it, for GCUGUCACCGGAAUACCAGCAUCGUCUUGAUGCCCUUGGAAGUCCGGUCUGAUGAGUCCAAAGAGGACGAAACAGC [AAAGA]
A) not satisfied

Q) State whether the measured FACS-Seq fitted mean (log10) reaches 0.8, counting equality as reaching it, for GCUGUCACCGGAAUACCAGCAUCGUCUUGAUGCCCUUGGAAGUCCGGUCUGAUGAGUCCCCAGCGGACGAAACAGC [CCAGC]
A) satisfied

Q) State whether the measured FACS-Seq fitted mean (log10) reaches 0.8, counting equality as reaching it, for GCUGUCACCGGAAUACCAGCAUCGUCUUGAUGCCCUUGGAAGUCCGGUCUGAUGAGUCCCUGUAGGACGAAACAGC [CUGUA]
A) not satisfied

Q) State whether the measured FACS-Seq fitted mean (log10) reaches 0.8, counting equality as reaching it, for GCUGUCACCGGAAUACCAGCAUCGUCUUGAUGCCCUUGGAAGUCCGGUCUGAUGAGUCCAGCCAGGACGAAACAGC [AGCCA]
A) satisfied

Q) State whether the measured FACS-Seq fitted mean (log10) reaches 0.8, counting equality as reaching it, for GCUGUCACCGGAAUACCAGCAUCGUCUUGAUGCCCUUGGAAGUCCGGUCUGAUGAGUCCCAGGUGGACGAAACAGC [CAGGU]
A) satisfied

Q) State whether the measured FACS-Seq fitted mean (log10) reaches 0.8, counting equality as reaching it, for GCUGUCACCGGAAUACCAGCAUCGUCUUGAUGCCCUUGGAAGUCCGGUCUGAUGAGUCCAGGGAGGACGAAACAGC [AGGGA]
A) not satisfied

Q) State whether the measured FACS-Seq fitted mean (log10) reaches 0.8, counting equality as reaching it, for GCUGUCACCGGAAUACCAGCAUCGUCUUGAUGCCCUUGGAAGUCCGGUCUGAUGAGUCCUUGAUGGACGAAACAGC [UUGAU]
A) not satisfied

Q) State whether the measured FACS-Seq fitted mean (log10) reaches 0.8, counting equality as reaching it, for GCUGUCACCGGAAUACCAGCAUCGUCUUGAUGCCCUUGGAAGUCCGGUCUGAUGAGUCCUCUGGGGACGAAACAGC [UCUGG]
A) satisfied

Q) State whether the measured FACS-Seq fitted mean (log10) reaches 0.8, counting equality as reaching it, for GCUGUCACCGGAAUACCAGCAUCGUCUUGAUGCCCUUGGAAGUCCGGUCUGAUGAGUCCACGUGGGACGAAACAGC [ACGUG]
A) satisfied

Q) State whether the measured FACS-Seq fitted mean (log10) reaches 0.8, counting equality as reaching it, for GCUGUCACCGGAAUACCAGCAUCGUCUUGAUGCCCUUGGAAGUCCGGUCUGAUGAGUCCAGUUCGGACGAAACAGC [AGUUC]
A) satisfied

Q) State whether the measured FACS-Seq fitted mean (log10) reaches 0.8, counting equality as reaching it, for GCUGUCACCGGAAUACCAGCAUCGUCUUGAUGCCCUUGGAAGUCCGGUCUGAUGAGUCCACUAAGGACGAAACAGC [ACUAA]
A) not satisfied

Q) State whether the measured FACS-Seq fitted mean (log10) reaches 0.8, counting equality as reaching it, for GCUGUCACCGGAAUACCAGCAUCGUCUUGAUGCCCUUGGAAGUCCGGUCUGAUGAGUCCGUACUGGACGAAACAGC [GUACU]
A) satisfied

Q) State whether the measured FACS-Seq fitted mean (log10) reaches 0.8, counting equality as reaching it, for GCUGUCACCGGAAUACCAGCAUCGUCUUGAUGCCCUUGGAAGUCCGGUCUGAUGAGUCCACAAUGGACGAAACAGC [ACAAU]
A) not satisfied

Q) State whether the measured FACS-Seq fitted mean (log10) reaches 0.8, counting equality as reaching it, for GCUGUCACCGGAAUACCAGCAUCGUCUUGAUGCCCUUGGAAGUCCGGUCUGAUGAGUCCAGCCUGGACGAAACAGC [AGCCU]
A) satisfied

Q) State whether the measured FACS-Seq fitted mean (log10) reaches 0.8, counting equality as reaching it, for GCUGUCACCGGAAUACCAGCAUCGUCUUGAUGCCCUUGGAAGUCCGGUCUGAUGAGUCCAACGUGGACGAAACAGC [AACGU]
A) satisfied

Q) State whether the measured FACS-Seq fitted mean (log10) reaches 0.8, counting equality as reaching it, for GCUGUCACCGGAAUACCAGCAUCGUCUUGAUGCCCUUGGAAGUCCGGUCUGAUGAGUCCUUGUGGGACGAAACAGC [UUGUG]
A) not satisfied

Q) State whether the measured FACS-Seq fitted mean (log10) reaches 0.8, counting equality as reaching it, for GCUGUCACCGGAAUACCAGCAUCGUCUUGAUGCCCUUGGAAGUCCGGUCUGAUGAGUCCACGGUGGACGAAACAGC [ACGGU]
A) satisfied

Q) State whether the measured FACS-Seq fitted mean (log10) reaches 0.8, counting equality as reaching it, for GCUGUCACCGGAAUACCAGCAUCGUCUUGAUGCCCUUGGAAGUCCGGUCUGAUGAGUCCAAGAUGGACGAAACAGC [AAGAU]
A) satisfied
